# tested.target: full length recombinant Pim-2 protein (Homo sapiens)
# Construct: by full length recombinant Pim-1, Pim-2, or Pim-3 protein; hexahistidine tag followed by a thrombin cleavage site (N); made in house; host or cells: Sf9 (baculovirus) or E. coli (pET28)
# Sequence (Q9P1W9 whole entry): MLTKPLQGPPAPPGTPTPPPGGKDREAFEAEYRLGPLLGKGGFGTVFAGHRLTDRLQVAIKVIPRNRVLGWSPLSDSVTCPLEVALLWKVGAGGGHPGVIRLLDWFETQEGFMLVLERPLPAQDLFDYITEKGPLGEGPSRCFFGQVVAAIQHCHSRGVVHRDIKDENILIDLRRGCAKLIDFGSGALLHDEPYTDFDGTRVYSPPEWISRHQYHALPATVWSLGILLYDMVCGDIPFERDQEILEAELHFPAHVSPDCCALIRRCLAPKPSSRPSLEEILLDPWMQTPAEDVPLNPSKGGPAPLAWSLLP
# experiment: Pim-2 enzyme assay (HTRF, phosphorylation of biotinylated-BAD (S112) peptide)
# Format: biochemical
# measurement.parameters: read-out: Pim2_IC50
Rule: IC50 below 60 nM gives class 1, anything at or above gives class 0.

[
  {
    "molecule": "NC1CCN(c2cncc(-c3n[nH]c4ccc(-c5cncc(NC6CC6)n5)cc34)n2)CC1 [Example 509]",
    "category.label": "class 1"
  },
  {
    "molecule": "CN(C)C(=O)c1ccc2[nH]nc(-c3cncc(O[C@@H]4CCCNC4)n3)c2c1 [Example 556]",
    "category.label": "class 0"
  }
]

Bench note: check whether CC1CNCC(Oc2cncc(-c3n[nH]c4ccc(-c5c(F)cccc5F)cc34)n2)C1 (single isomer, unassigned) [Example 468] shows IC50 below 60 nM
class 0

Similarly, CC(C)Oc1cncc(-c2ccc3[nH]cc(-c4nnc(N5CCC[C@H](N)C5)o4)c3c2)n1 [Example 510] ?
class 0

Similarly, CC(C)c1ccc2[nH]nc(-c3cncc(O[C@H]4CNCCC45CC5)n3)c2c1 [Example 253] ?
class 1

Similarly, COc1cncc(-c2n[nH]c3ccc(-c4cc(C(F)(F)F)ccn4)cc23)n1 [Example 378] ?
class 0

Similarly, CNC(=O)c1ccc2[nH]nc(-c3cncc(O[C@@H]4CCCNC4)n3)c2c1 [Example 478] ?
class 0

----------
Recorded IC50 by entry
# tested.target: Pim-2 stably transfected into the U2OS human osteogenic sarcoma line (Homo sapiens, UniProt Q9P1W9)
# Construct: expressed in transfected cells; host or cells: U2OS human osteogenic sarcoma line
# experiment: Pim cell assay, phospho-BAD normalized against total BAD, U2OS stably transfected with Pim-2
# Type: cell-based
# measurement.parameters: U2OS stably transfected with Pim-2; phospho-BAD normalized against total BAD; 29 min incubation; read-out: Pim2_Cell_IC50_

[
  {
    "smiles": "CC(C)Oc1cncc(-c2ccc3[nH]cc(-c4nnc(N[C@@H]5CCCNC5)o4)c3c2)n1",
    "IC50": "> 31.6 µM"
  },
  {
    "smiles": "c1cc2[nH]nc(-c3cncc(OC4CCNCC4)n3)c2cc1-c1cncc(C2CC2)n1",
    "IC50": "3.46 µM"
  }
]

Param item = OCc1cccc(-c2ccc3[nH]cc(-c4cncc(O[C@@H]5CCCNC5)n4)c3c2)c1 ; retrieve measured IC50.
9.06 µM

Similarly, COC(=O)c1ccc2[nH]nc(-c3ccnc(NC4CCNCC4)n3)c2c1 ?
4.48 µM

----------
Recorded IC50 by entry
# tested.target: Pim-1 stably transfected into the U2OS human osteogenic sarcoma line (Homo sapiens, UniProt P11309)
# Construct: expressed in transfected cells; host or cells: U2OS human osteogenic sarcoma line
# Sequence (P11309 whole entry): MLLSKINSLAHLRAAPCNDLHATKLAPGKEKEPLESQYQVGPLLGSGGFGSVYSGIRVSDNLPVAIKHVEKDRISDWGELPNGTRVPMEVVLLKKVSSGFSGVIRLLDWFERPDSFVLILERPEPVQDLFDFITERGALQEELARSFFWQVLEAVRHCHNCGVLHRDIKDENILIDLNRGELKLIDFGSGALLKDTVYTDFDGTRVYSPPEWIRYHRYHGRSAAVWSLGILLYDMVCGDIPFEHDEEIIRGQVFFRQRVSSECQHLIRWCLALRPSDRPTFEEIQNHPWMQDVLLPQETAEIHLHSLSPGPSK
# experiment: Pim cell assay, phospho-BAD normalized against total BAD, U2OS stably transfected with Pim-1
# Assay type: cell-based
# measurement.parameters: U2OS stably transfected with Pim-1; phospho-BAD normalized against total BAD; 29 min incubation; read-out: Pim1_Cell_IC50_
# Procedure: The cell lines used in the assay were generated by the stable transfection of either Pim-1 or Pim-2 into the U2OS human osteogenic sarcoma line. […] These prepared lysates were then assayed for phospho and total BAD according to the manufacturer's protocols (Meso Scale Diagnostics, Cat# K15103C-3 & # K15103D-3). The plates were read on the MSD Sector Imager 6000, and results were calculated according to the assay protocols ((% Phosphoprotein=((2×Phospho signal)/(Phospho signal+Total signal))×100)).
State just the number; it will be interpreted in nM.

Known results for compounds:
[
  {
    "compound": "COc1ccc(-c2ccc3[nH]cc(-c4cncc(O[C@@H]5CCCNC5)n4)c3c2)cc1OC [Example 345]",
    "measurement.name": "IC50",
    "unit.symbol": "nM",
    "numeric.result": 729
  },
  {
    "compound": "OCc1cccc(-c2ccc3[nH]cc(-c4cncc(O[C@@H]5CCCNC5)n4)c3c2)c1 [Example 315]",
    "measurement.name": "IC50",
    "unit.symbol": "nM",
    "numeric.result": 444
  },
  {
    "compound": "COc1cc(OC)cc(-c2ccc3[nH]cc(-c4cncc(O[C@@H]5CCCNC5)n4)c3c2)c1 [Example 294]",
    "measurement.name": "IC50",
    "unit.symbol": "nM",
    "numeric.result": 521
  },
  {
    "compound": "COc1cc(-c2ccc3[nH]cc(-c4cncc(O[C@@H]5CCCNC5)n4)c3c2)c(F)cn1 [Example 290]",
    "measurement.name": "IC50",
    "unit.symbol": "nM",
    "numeric.result": 313
  },
  {
    "compound": "c1cc2[nH]nc(-c3cncc(O[C@H]4CNCCC45CC5)n3)c2cc1C1CCOCC1 [Example 264]",
    "measurement.name": "IC50",
    "unit.symbol": "nM",
    "numeric.result": 276
  }
]

Param item = COc1ccc(-c2ccc3[nH]cc(-c4cncc(O[C@@H]5CCCNC5)n4)c3c2)cc1F [Example 292] ; retrieve measured IC50.
649

Similarly, c1cc2[nH]nc(-c3cncc(O[C@H]4CNCCC45CC5)n3)c2cc1N1CCOCC1 [Example 400] ?
1130

Similarly, CC1CCNCC1Oc1cncc(-c2n[nH]c3ccc(-c4c(F)cccc4F)cc23)n1 (single isomer, unassigned) [Example 423] ?
1660

----------
# tested.target: Pim-1 stably transfected into the U2OS human osteogenic sarcoma line (Homo sapiens)
# Construct: expressed in transfected cells; host or cells: U2OS human osteogenic sarcoma line
# experiment: Pim cell assay, phospho-BAD normalized against total BAD, U2OS stably transfected with Pim-1
# Format: cell-based
# measurement.parameters: U2OS stably transfected with Pim-1; phospho-BAD normalized against total BAD; 29 min incubation; read-out: Pim1_Cell_IC50_
Where a name gives a salt, the structure may show the parent alone.
Recorded pIC50 by entry
Schema: pIC50 number; meaning minus log10 of the concentration expressed in molar units.

Known results for molecules:
[
  {
    "molecule": "NC1CCN(c2cncc(-c3c[nH]c4ccc(-c5cncc(C6CC6)n5)cc34)n2)CC1 [Example 517]",
    "pIC50": 6.75
  },
  {
    "molecule": "c1cc(-c2ccc3[nH]cc(-c4cncc(O[C@@H]5CCCNC5)n4)c3c2)nc(N2CCNCC2)c1 [Example 299]",
    "pIC50": 5.90
  },
  {
    "molecule": "O=c1cc(-c2n[nH]c3ccc(-c4c(F)cccc4F)cc23)nc(N[C@@H]2CCCNC2)[nH]1 [Example 282]",
    "pIC50": 5.93
  },
  {
    "molecule": "c1cc2[nH]cc(-c3cncc(O[C@@H]4CCCNC4)n3)c2cc1-c1cnn(C2CC2)c1 [Example 291]",
    "pIC50": 6.81
  },
  {
    "molecule": "CC(C)Nc1nc(-c2n[nH]c3ccc(-c4c(F)cccc4F)cc23)cc(=O)[nH]1 [Example 524]",
    "pIC50": 6.00
  },
  {
    "molecule": "COC(=O)c1ccc2[nH]nc(-c3cncc(O[C@@H]4CCCNC4)n3)c2c1 [Example 476]",
    "pIC50": 6.23
  }
]

Next:
Param item = C1=C(c2ccc3[nH]nc(-c4cncc(O[C@H]5CNCCC56CC6)n4)c3c2)CCOC1 [Example 263, 2,2,2-trifluoroacetate salt] ; retrieve measured pIC50.
6.74

----------
# tested.target: full length recombinant Pim-1 protein (Homo sapiens, UniProt P11309)
# Construct: by full length recombinant Pim-1, Pim-2, or Pim-3 protein; hexahistidine tag followed by a thrombin cleavage site (N); made in house; host or cells: Sf9 (baculovirus) or E. coli (pET28)
# Sequence (P11309 whole entry): as the sequence (P11309 whole entry) above
# experiment: Pim-1 enzyme assay (HTRF, phosphorylation of biotinylated-BAD (S112) peptide)
# Assay type: biochemical
# measurement.parameters: enzyme assay, Pim-1; read-out: Pim_1_IC50
# Procedure: These cDNAs were used as templates in PCR reactions to produce full-length DNA clones of the PIMs. […] This step was repeated 3× and the resin was transferred to a 2.5 cm glass column. […] Fractions were analyzed by SDS-PAGE and those containing the protein of interest were pooled and concentrated. […] The final buffer conditions were as follows: 60 mM Hepes, pH 7.0, 0.05% BSA, 2 mM DTT. […] For each plate, percent of control (POC) values were calculated for each well. […]
measurement.name: IC50 (nM)
State just the number; it will be interpreted in nM.

Known results for molecules:
[
  {
    "smiles": "CC(C)Oc1cncc(-c2ccc3[nH]cc(-c4cccc(N)n4)c3c2)n1",
    "IC50 / nM": 765
  },
  {
    "smiles": "Nc1ccc2[nH]cc(-c3cncc(N4CCC(N)CC4)n3)c2c1",
    "IC50 / nM": 845
  },
  {
    "smiles": "CNc1cncc(-c2n[nH]c3ccc(-c4c(F)cccc4F)cc23)n1",
    "IC50 / nM": 168
  }
]

Param item = NC1CCN(c2cncc(-c3n[nH]c4ccc(-c5cc(C(=O)N6CCCCC6)ccc5F)cc34)n2)CC1 ; retrieve measured IC50.
35
